Data provenance is paper PMC3794980.

Target: DRB1*1501 (Homo sapiens, UniProt P01903+P01911)
Test: biochemical
Measure: IC50 (nM)
The answer is to be given in nM; state only the numeric part.

Reported IC50 of CC[C@H](C)[C@H](NC(=O)[C@H](CC(N)=O)NC(=O)CNC(=O)[C@@H](NC(=O)CNC(=O)[C@H](CC(N)=O)NC(=O)[C@@H](N)CO)[C@@H](C)O)C(=O)N[C@H](C(=O)N[C@@H](CO)C(=O)N[C@@H](CO)C(=O)N[C@H](C(=O)N[C@@H](CC(N)=O)C(=O)N[C@@H](CCSC)C(=O)N[C@H](C(=O)N[C@@H](CO)C(=O)N[C@@H](CCCNC(=N)N)C(=O)N[C@@H](CC(C)C)C(=O)O)C(C)C)C(C)C)C(C)C : 20

Reported IC50 of CC[C@H](C)[C@H](NC(=O)[C@H](C)NC(=O)[C@H](C)NC(=O)[C@H](C)NC(=O)[C@@H](N)CCC(=O)O)C(=O)N[C@@H](Cc1ccccc1)C(=O)N[C@@H](CCSC)C(=O)N[C@H](C(=O)N[C@@H](C)C(=O)N[C@H](C(=O)N1CCC[C@H]1C(=O)N1CCC[C@H]1C(=O)NCC(=O)N[C@H](C(=O)N[C@@H](C)C(=O)O)[C@@H](C)O)[C@@H](C)O)[C@@H](C)O : 363

Reported IC50 of CC[C@H](C)[C@H](NC(=O)[C@H](CC(C)C)NC(=O)[C@H](CC(N)=O)NC(=O)[C@H](Cc1ccc(O)cc1)NC(=O)[C@H](CC(N)=O)NC(=O)[C@@H]1CCCN1)C(=O)N[C@H](C(=O)N[C@@H](CCSC)C(=O)N[C@@H](CC(=O)O)C(=O)N[C@@H](CCC(=O)O)C(=O)N[C@@H](C)C(=O)N[C@@H](Cc1c[nH]cn1)C(=O)N[C@@H](Cc1ccccc1)C(=O)N[C@H](C(=O)N[C@@H](CC(=O)O)C(=O)O)[C@@H](C)O)[C@@H](C)CC : 1320

* * *

I'd appreciate it if you could supply pIC50 values for the items below.
Biological target: DRB3*0101 (Homo sapiens, UniProt P01903+P79483)
Assay: biochemical
Format: binding
Reminder that pIC50 means the negative base-10 logarithm of the concentration expressed in mol/L.

Reported pIC50 of CC[C@H](C)[C@H](NC(=O)[C@H](CCC(=O)O)NC(=O)CNC(=O)[C@@H](NC(=O)[C@@H](NC(=O)[C@@H](NC(=O)[C@H](CCC(N)=O)NC(=O)[C@H](Cc1ccccc1)NC(=O)[C@@H](NC(=O)CNC(=O)[C@@H]1CCCN1C(=O)[C@H](CCSC)NC(=O)[C@@H](NC(=O)[C@H](CCC(N)=O)NC(=O)[C@@H](N)Cc1ccccc1)[C@@H](C)O)[C@@H](C)O)[C@@H](C)O)[C@@H](C)O)[C@@H](C)O)C(=O)O : 5.38

Reported pIC50 of CSCC[C@H](NC(=O)CNC(=O)CNC(=O)[C@H](Cc1c[nH]cn1)NC(=O)[C@H](CCCCN)NC(=O)[C@H](CCCNC(=N)N)NC(=O)[C@H](CCC(N)=O)NC(=O)[C@H](CC(C)C)NC(=O)[C@H](CCCNC(=N)N)NC(=O)[C@H](CCC(=O)O)NC(=O)[C@@H](N)CC(C)C)C(=O)N[C@@H](CC(C)C)C(=O)N[C@H](C(=O)N[C@@H](CCCNC(=N)N)C(=O)N[C@@H](CC(N)=O)C(=O)N1CCC[C@H]1C(=O)N[C@@H](CC(C)C)C(=O)O)C(C)C : 4.92

Reported pIC50 of CC[C@H](C)[C@H](NC(=O)[C@H](CCCCN)NC(=O)CNC(=O)[C@H](CCC(=O)O)NC(=O)[C@@H](NC(=O)[C@H](CS)NC(=O)[C@H](CC(C)C)NC(=O)[C@H](CCCCN)NC(=O)[C@H](CCCNC(=N)N)NC(=O)[C@H](CC(C)C)NC(=O)[C@@H](NC(=O)[C@H](C)NC(=O)[C@H](CC(C)C)NC(=O)[C@H](CCC(N)=O)NC(=O)[C@@H](N)[C@@H](C)O)[C@@H](C)O)[C@@H](C)CC)C(=O)O : 5.08

Reported pIC50 of CC[C@H](C)[C@H](NC(=O)[C@@H](NC(=O)[C@H](CCCNC(=N)N)NC(=O)[C@H](CCC(=O)O)NC(=O)[C@@H]1CCCN1C(=O)CNC(=O)[C@H](CC(=O)O)NC(=O)[C@@H](NC(=O)[C@H](CC(C)C)NC(=O)[C@@H](NC(=O)[C@@H](NC(=O)[C@@H]1CCCN1C(=O)[C@H](CCCCN)NC(=O)[C@H](CC(C)C)NC(=O)[C@@H](N)CS)C(C)C)[C@@H](C)CC)[C@@H](C)O)C(C)C)C(=O)O : 8.24

Reported pIC50 of CC(C)C[C@H](NC(=O)[C@H](CCCCN)NC(=O)[C@@H](NC(=O)[C@H](CCCCN)NC(=O)[C@H](CCC(N)=O)NC(=O)[C@H](Cc1ccc(O)cc1)NC(=O)[C@H](CCC(=O)O)NC(=O)[C@@H](N)[C@@H](C)O)[C@@H](C)O)C(=O)N[C@@H](CC(N)=O)C(=O)N[C@@H](CC(=O)O)C(=O)N[C@@H](Cc1c[nH]c2ccccc12)C(=O)N[C@@H](CC(=O)O)C(=O)N[C@@H](Cc1ccccc1)C(=O)N[C@H](C(=O)N[C@H](C(=O)O)C(C)C)C(C)C : 5.43

Reported pIC50 of CC(C)[C@H](NC(=O)[C@H](CCC(=O)O)NC(=O)[C@H](Cc1ccc(O)cc1)NC(=O)[C@H](CO)NC(=O)CNC(=O)[C@H](Cc1c[nH]cn1)NC(=O)[C@H](Cc1ccc(O)cc1)NC(=O)[C@H](C)NC(=O)[C@H](Cc1c[nH]c2ccccc12)NC(=O)[C@@H](NC(=O)[C@H](CCCCN)NC(=O)[C@H](Cc1ccc(O)cc1)NC(=O)[C@@H]1CCCN1C(=O)[C@H](CC(N)=O)NC(=O)[C@H](CCC(=O)O)NC(=O)[C@@H](N)CC(=O)O)[C@@H](C)O)C(=O)N[C@@H](CCCCN)C(=O)O : 6.01

Reported pIC50 of CSCC[C@H](NC(=O)[C@H](CCC(N)=O)NC(=O)[C@H](C)NC(=O)[C@H](Cc1ccc(O)cc1)NC(=O)[C@H](C)NC(=O)[C@H](CCCCN)NC(=O)CNC(=O)[C@H](CC(C)C)NC(=O)[C@H](CS)NC(=O)[C@H](C)NC(=O)[C@@H](NC(=O)[C@H](CCC(=O)O)NC(=O)[C@H](CCCNC(=N)N)NC(=O)[C@H](CC(C)C)NC(=O)[C@@H](N)CO)[C@@H](C)O)C(=O)N[C@@H](Cc1c[nH]c2ccccc12)C(=O)N[C@H](C(=O)O)[C@@H](C)O : 5.08

Reported pIC50 of CC[C@H](C)[C@H](NC(=O)CNC(=O)[C@H](CO)NC(=O)[C@H](CCCCN)NC(=O)[C@H](CCCCN)NC(=O)[C@H](Cc1ccc(O)cc1)NC(=O)[C@H](CC(C)C)NC(=O)[C@H](CC(=O)O)NC(=O)[C@H](Cc1ccccc1)NC(=O)[C@H](CCC(=O)O)NC(=O)[C@@H](N)CCCCN)C(=O)N[C@H](C(=O)N[C@@H](CCC(=O)O)C(=O)N[C@H](C(=O)N[C@@H](CC(=O)O)C(=O)N[C@@H](CCCNC(=N)N)C(=O)N[C@H](C(=O)O)[C@@H](C)O)C(C)C)[C@@H](C)O : 5.24

Reported pIC50 of CC[C@H](C)[C@H](NC(=O)[C@@H](NC(=O)[C@H](CCSC)NC(=O)[C@H](CC(=O)O)NC(=O)[C@H](CO)NC(=O)[C@H](CCC(=O)O)NC(=O)[C@H](CC(C)C)NC(=O)[C@@H](NC(=O)CNC(=O)[C@H](CC(N)=O)NC(=O)[C@H](CO)NC(=O)[C@H](Cc1c[nH]c2ccccc12)NC(=O)[C@H](CC(C)C)NC(=O)[C@@H](NC(=O)[C@@H](N)Cc1c[nH]cn1)[C@@H](C)O)C(C)C)[C@@H](C)CC)C(=O)O : 6.13

* * *

Biological target: DRB3*0101 (Homo sapiens, UniProt P01903+P79483)
Assay: biochemical
I'd appreciate it if you could supply pIC50 values for the items below.
Reminder that pIC50 means the negative base-10 logarithm of the concentration expressed in mol/L.

Param item: CC[C@H](C)[C@H](NC(=O)[C@H](Cc1ccc(O)cc1)NC(=O)CNC(=O)[C@H](CC(C)C)NC(=O)[C@H](CCCCN)NC(=O)[C@H](Cc1c[nH]cn1)NC(=O)[C@H](CC(C)C)NC(=O)CNC(=O)[C@H](CCC(=O)O)NC(=O)CNC(=O)[C@H](CCC(=O)O)NC(=O)[C@@H](NC(=O)CNC(=O)[C@H](CO)NC(=O)[C@H](Cc1ccc(O)cc1)NC(=O)[C@H](CO)NC(=O)[C@@H](N)CC(N)=O)C(C)C)C(=O)O [NS5 501-517] ; param system: DRB3*0101 (Homo sapiens, UniProt P01903+P79483); output pIC50: 5.53

Param item: CSCC[C@H](NC(=O)CNC(=O)[C@H](CCCCN)NC(=O)[C@H](CC(C)C)NC(=O)[C@H](CCC(=O)O)NC(=O)[C@H](CC(C)C)NC(=O)[C@H](CCCCN)NC(=O)[C@H](CC(=O)O)NC(=O)[C@H](CCSC)NC(=O)[C@H](CCCCN)NC(=O)[C@H](CC(C)C)NC(=O)[C@H](CCCNC(=N)N)NC(=O)[C@H](CS)NC(=O)[C@H](CCCCN)NC(=O)[C@@H](N)CC(C)C)C(=O)O [Envelope 281-295] ; param system: DRB3*0101 (Homo sapiens, UniProt P01903+P79483); output pIC50: 7.51

Param item: CC[C@H](C)[C@H](NC(=O)[C@H](C)NC(=O)CNC(=O)[C@@H](NC(=O)[C@H](CCC(=O)O)NC(=O)CNC(=O)[C@@H](NC(=O)[C@@H](NC(=O)[C@@H](NC(=O)[C@H](CCC(N)=O)NC(=O)[C@H](Cc1ccccc1)NC(=O)[C@@H](NC(=O)CNC(=O)[C@@H]1CCCN1)[C@@H](C)O)[C@@H](C)O)[C@@H](C)O)[C@@H](C)O)[C@@H](C)CC)C(=O)N[C@@H](C)C(=O)O [NS3 113-127] ; param system: DRB3*0101 (Homo sapiens, UniProt P01903+P79483); output pIC50: 5.51
